Ref: patent US20240417458A1

Target: T1, soluble human RGMa (human, UniProt Q96B86 48-422, limits assumed)
T1 construct: Soluble antigen in BIAcore; also called huRGMa; repulsive guidance molecule A
T1 sequence (looked up): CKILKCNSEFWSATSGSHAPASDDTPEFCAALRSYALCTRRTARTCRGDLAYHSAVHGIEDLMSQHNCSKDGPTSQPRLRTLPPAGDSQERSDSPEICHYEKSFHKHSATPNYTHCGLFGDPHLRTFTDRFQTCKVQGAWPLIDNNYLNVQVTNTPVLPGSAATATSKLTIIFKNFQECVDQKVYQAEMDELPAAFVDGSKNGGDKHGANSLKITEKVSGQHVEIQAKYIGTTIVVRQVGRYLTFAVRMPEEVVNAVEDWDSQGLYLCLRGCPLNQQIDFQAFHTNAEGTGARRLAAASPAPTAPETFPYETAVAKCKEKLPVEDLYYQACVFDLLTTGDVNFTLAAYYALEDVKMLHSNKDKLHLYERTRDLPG
Experiment: SPR (BIAcore);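 further: Anti-HJV antibodies tested for binding against soluble human RGMa by surface plasmon resonance on a BIAcore instrument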
QUANTITY NAME: Kd
Field note: include the unit after the figure.

Qu. What value of measured Kd is listed for hHA-011 (antibody, human IgG1, kappa, L234A L235A, V domains shown, hIgG1 L234A, L235A, kappa) VH: EVQLVESGGGLVQPGGSLRLSCAASGFTFSNYGMNWVRQAPGKGLEWIGMIYYDSSEKHYADSVKGRFTISRDNSKNTLYLQMNSLRAEDTAVYYCAKGSTPDYWGQGTMVTVSS VL: DVVLTQSPLSLPVTLGQPASISCRSSQSLEDSDGGTFLEWFQQRPGQSPRLLIYDVSSRFSGVPDRFSGSGSGTDFTLKISRVEAEDVGVYYCFQATHDPLSFGQGTKLEIKR ?
Ans. 0.11 nM
